test: in vitro; details: human, hela cells, % viability
valueKind: viability at 28.5 h, 10 µM (%)
Use % as the unit, but write only the number.

In [3]: df
Out[3]:
                                   molecule  measurementunits  measurement
0           Cc1cccc(NC(=O)CSCc2ccc(Cl)s2)n1                 %         90.4
1        CCN1CCN(Cc2c(C)nc3ccc(C)cc3c2O)CC1                 %         89.8
2           Fc1ccc(-n2cc(-c3cccnc3)nn2)cc1F                 %         89.3
3  O=C(Cn1cccc(C(=O)NCc2ccccc2)c1=O)NC1(c2ccccc2)CCCC1                 %         89.1
4  COC[C@@H]1CCCN1S(=O)(=O)c1ccc(Cl)c(Cl)c1                 %         91.3
5       O=C(NCCn1nc(-c2cccs2)ccc1=O)c1ccco1                 %         90.1
6  Cc1ccccc1C(NC(=O)C1CCN(C(=O)CCC2CCCC2)CC1)c1ccccn1 (stereo not drawn)                 %         90.5
7  Cn1c(N2CCCC(C(=O)NCC3CC3)C2)nc2ccccc21 (stereo not drawn)                 %         92.6

## Task // viability at 28.5 h, 10 µM lookup, key: CCOC(=O)c1c(N)sc(C(=O)Nc2cccc([N+](=O)[O-])c2)c1C
## Result 91.2

* * *

test: in vitro; settings: human, hela cells, % viability
Parameter: viability at 28.5 h, 10 µM. Scope: all listed entries.
Use % as the unit, but write only the number.

>>> df
                                   compound  measurement
0  Cc1nc(NS(=O)(=O)Cc2ccccc2[N+](=O)[O-])sc1C(=O)O         89.5
1    O=C(CN1C(=O)N2CCN=C2c2ccccc21)NC1CCCC1          100
2  CN1CCC(CNS(=O)(=O)c2cccc3c2OCC3)CC1=O (stereo not drawn)          114
3  O=C(COc1ccccc1)NCc1ccc(OC2CCNCC2)cc1 [CBK028425T]         98.2
4  CN1CCN(c2nc(-c3cc4ccccc4s3)cn3ccnc23)CC1          106
5           Cc1ncc(CO)c(CN)c1O [CBK278211C]         86.8
6  CC(C)NC(=O)N1CCCC1c1nc(-c2ccc(Cl)cc2)c2ccccn12 (stereo not drawn)           84
7   Cc1ccc(NC(=O)COc2ccccc2/C=C/C(=O)O)cc1C          111

## Task // viability at 28.5 h, 10 µM lookup, key: Cc1cc(C(=O)NCc2ccc(C(=O)O)cc2)no1
## Result 98.3

## Task // viability at 28.5 h, 10 µM lookup, key: CCn1c(C)nc2cc(NC(=O)Cn3cccn3)ccc21
## Result 89.5

* * *

assay: in vitro; details: human, hela cells, % viability
valueKind: viability at 28.5 h, 10 µM (%)
Use % as the unit, but write only the number.

Here is how some molecules turned out for viability at 28.5 h, 10 µM.
                                   molecule  measurement
0  O=C(C1CCCC1)N1CC(n2nc(-c3ccccc3)ccc2=O)C1         93.9
1  COc1ccc(CN2CCN(C(=O)c3ccc(C#N)cc3)CC2)cc1         99.6
2  COc1ccc(C(C)N(CCN2CCOCC2)C(=O)NCc2cccnc2)cc1OC (stereo not shown)          114

## Task // viability at 28.5 h, 10 µM lookup, key: COc1ccc(C(NC(=O)N(C(C)C)C(C)C)c2nccn2C)cc1 (stereo not shown)
## Result 111

## Task // viability at 28.5 h, 10 µM lookup, key: CCOC(=O)c1c(NC(=O)CSc2n[nH]c(N)n2)sc2c1CCCCC2
## Result 101

## Task // viability at 28.5 h, 10 µM lookup, key: O=C(Cc1ccccc1Cl)N1CCC(O)(c2cccnc2F)CC1
## Result 101

## Task // viability at 28.5 h, 10 µM lookup, key: CC(=O)NCCc1ccc(S(=O)(=O)N2CCN(Cc3ccccc3)CC2)cc1
## Result 94.8

## Task // viability at 28.5 h, 10 µM lookup, key: CN1CCN(c2ccccc2NC(=S)NC(=O)c2ccc(N3CCCCC3)c([N+](=O)[O-])c2)CC1 [CBK268520C]
## Result 121

* * *

Parameter: viability at 28.5 h, 10 µM. Scope: all listed entries.
assay: in vitro; details: human, hela cells, % viability
Use % as the unit, but write only the number.

## Task // viability at 28.5 h, 10 µM lookup, key: O=C(Cc1ccc(Cl)c(Cl)c1)N1CCC2(CCN(C(=O)c3cc(F)c(F)cc3F)C2)C1 (centres unmarked) [CBK131386]
## Result 95.9

## Task // viability at 28.5 h, 10 µM lookup, key: O=C(CC1CC1)Nc1cc(-c2ccncc2)c[nH]c1=O [CBK116585]
## Result 91.9

## Task // viability at 28.5 h, 10 µM lookup, key: CCC(C)(C)c1ccc(S(=O)(=O)Nc2ccc3ncsc3c2)cc1 [CBK043490]
## Result 113

## Task // viability at 28.5 h, 10 µM lookup, key: O=C(O)c1nn(-c2ccccc2)c2cc([N+](=O)[O-])ccc12 [CBK006532]
## Result 95

* * *

assay: in vitro; conditions: human, hela cells, % viability
Parameter: viability at 28.5 h, 10 µM. Scope: all listed entries.
Use % as the unit, but write only the number.

                                   molecule                   valuekind  measurement
0  CCN(CC)C(=O)c1ccccc1NS(=O)(=O)c1ccc(OC)c(OC)c1 [CBK045423]  viability at 28.5 h, 10 µM         92.6
1  Cc1ccc(N(CCc2cc(C(F)(F)F)cc(C(F)(F)F)c2)C(=O)CN)cc1NC(=O)CN(C)C [CBK003630T]  viability at 28.5 h, 10 µM         84.5
2  O=C(O)c1cc(NC(=O)c2ccc(NC(=O)c3ccco3)cc2)cc(C(=O)O)c1 [CBK265149]  viability at 28.5 h, 10 µM          111
3  c1ccc(C2=NN=C(N3CCOCC3)SC2)cc1 [CBK006876G]  viability at 28.5 h, 10 µM         97.3
4  Cc1cccc(C)c1NC(=O)CN1CCC(Oc2cncc(OCC3COc4ccccc4O3)n2)C1 (stereo not drawn) [CBK084373]  viability at 28.5 h, 10 µM         98.5

--- query ---
## Task // viability at 28.5 h, 10 µM lookup, key: O=C1CC(c2nc3ccccc3n2CCc2ccccc2)CN1c1ccccc1 (stereo not drawn) [CBK266311]
## Result 101

* * *

assay: in vitro; conditions: human, hela cells, % viability
valueKind: viability at 28.5 h, 10 µM (%)
Use % as the unit, but write only the number.

                                   compound  measurement
0  CCN(CC)C(=O)C1CCCN(C2CCN(C(=O)c3c4ccccc4cc4ccccc34)CC2)C1 (stereo not shown) [CBK066966]          102

## Task // viability at 28.5 h, 10 µM lookup, key: O=C(C1CCCN(c2nc3c(-c4ccccc4)csc3c(=O)[nH]2)C1)N1CCOCC1 (stereo not shown) [CBK215582]
## Result 83.7

## Task // viability at 28.5 h, 10 µM lookup, key: O=C(O)C(CCCN1CCCC1)(c1ccccc1)c1ccccc1 [CBK022695G]
## Result 81.7

## Task // viability at 28.5 h, 10 µM lookup, key: COC(=O)c1c(NC(=O)C(=O)NCc2ccccn2)sc2c1CCCC2 [CBK269505]
## Result 95.2

## Task // viability at 28.5 h, 10 µM lookup, key: Cn1nc(C(F)(F)F)cc1C1CCCCCN1S(C)(=O)=O (stereo not shown) [CBK284673]
## Result 101

## Task // viability at 28.5 h, 10 µM lookup, key: Cc1ccc(OCc2occc2C(=O)N2CCC(O)(CN(C)C)C2)cc1 (stereo not shown) [CBK307341]
## Result 95.6

## Task // viability at 28.5 h, 10 µM lookup, key: CC(C)C(NS(=O)(=O)c1ccc2ccccc2c1)C(=O)O (stereo not shown) [CBK286919]
## Result 96.7

## Task // viability at 28.5 h, 10 µM lookup, key: Cc1ccc(N(CC(=O)Nc2cc(Cl)ccc2C)S(C)(=O)=O)cc1 [CBK264030]
## Result 92.9

## Task // viability at 28.5 h, 10 µM lookup, key: Cc1ncc2c(n1)[C@@H]1CN(C(=O)Cc3cccs3)C[C@@H]1CC2 [CBK284491]
## Result 89.3

## Task // viability at 28.5 h, 10 µM lookup, key: COc1ccc(-c2nc(NC3CCCCC3)c3ccccc3n2)cc1 [CBK058109]
## Result 95.6

## Task // viability at 28.5 h, 10 µM lookup, key: CC(C)c1ccc(/C=C/C(=O)NCc2ccc(NS(C)(=O)=O)cc2)cc1 [CBK161512]
## Result 97.8

## Task // viability at 28.5 h, 10 µM lookup, key: O=C(CNC(=O)OCc1ccncc1)NCC(CCCN1CCC(c2ccccc2)CC1)(c1ccccc1)c1ccccc1 [CBK024060A]
## Result 112

## Task // viability at 28.5 h, 10 µM lookup, key: CCCCN(CC(N)=O)C(=O)c1sc(COc2ccc(Cl)cc2)nc1C [CBK304539]
## Result 101

## Task // viability at 28.5 h, 10 µM lookup, key: CCc1nsc(N2CCC(Oc3cccnc3N(C)C)C2)n1 (stereo not shown) [CBK304498]
## Result 110

## Task // viability at 28.5 h, 10 µM lookup, key: Cc1cccc(NC(=O)Cn2cc(C(=O)COc3ccccc3)c3ccccc32)c1 [CBK268654]
## Result 104

## Task // viability at 28.5 h, 10 µM lookup, key: O=C(N/N=C/c1cccnc1)c1cccc(F)c1 [CBK261689]
## Result 101

## Task // viability at 28.5 h, 10 µM lookup, key: Oc1ccccc1Nc1nc(NC2CCCC2)c2ccccc2n1 [CBK268402C]
## Result 84.8

## Task // viability at 28.5 h, 10 µM lookup, key: Cc1cccc(/C=C2/SC(=S)N(CC(=O)O)C2=O)n1 [CBK265146]
## Result 82.9

## Task // viability at 28.5 h, 10 µM lookup, key: Cc1nnc2ncc(-c3ccccc3C(=O)N(C(C)C)C(C)C)cn12 [CBK307393]
## Result 94.7

Data origin: paper PMC12040169
